# tested.target: hemagglutinin of A/Indonesia/5/05 (H5N1, clade 2) (influenza A virus A/Indonesia/5/05 (H5N1))
# test: cell-based or functional assay
result.type: Reciprocal neutralising titre of culture supernatant (reciprocal titre)
Response field accepts a number only; no unit should be typed.

// recorded Reciprocal neutralising titre of culture supernatant (reciprocal titre) for FLD122 (antibody, V domains shown) VH: QFQLVQSGPEVKKPGTSVKVSCKASGYTSTTYGISWVRQVPGQGLEWMGWINPYNGNPHYGQKFQGRVTLTRDTSTNTAYLEILSLRSDDTAVYYCARDGWGQQLVPYYFDYWGQGTLVTVSS VL: DIVMTQSPLSLPVTPGEPASISCRASQSLLHSNGYNYLDWYLQKPGQSPQLLIQLGSTRASGVPDRFSGSGSGTDFTLEISRVEAEDVGVYYCMQALQLPLAFGQGTRLEIK : 362

Field Reciprocal neutralising titre of culture supernatant (reciprocal titre) (entry FLD93 (antibody, V domains shown) VH: WWQLVQSGAEVKKPGSSVKVSCKASGGTFSSYDISWVRQAPGQGLEWMGGIIPIYGTANYAQKFQGRVTITADESTSTAYMELSSLRSEDTAVYYCARAGGDSSGYYGALGRFFQHWGQGTLVTVSS VL: VIWMTQSPSLLSASTGDRVTISCRMSQGISSYLAWYQQKPGKAPELLIHTAYTLKSGVPSRFSGSGSGKDFTLTISGLQSEDFATYYCQQYYSFPYTFGQGTKVEIK ) reads 406

Kindly note the recorded Reciprocal neutralising titre of culture supernatant (reciprocal titre) for FLD20.19 (antibody, V domains shown) VH: QVQLVQSGAEVKKPGSSVTVSCKASGGTFSNYGISWVRQAPGQGLDWMGGIIPLFGTANYAQKFQGRVTITADESTSSSNMELSSLRSEDTAVYYCARDVHNYDFLTGYPLHLYGMDVWGQGTTVTVSS VL: DIQMTQSPSSLSASVGDRVTITCRASQSISTYLNWYQQKPGIPPKLLINVASSLQSGVPSRFSGSGSGTDFTLTISSLQPEDFASYYCQQTYSSPPTFGQGTKVEIK , which is 813

Per the record, FLD84 (antibody, V domains shown) VH: QVQLQESGPGLVKPSETLSLICAVSGASISSSYWSWIRQPPGKGLEWIGYIYYSGVTKYNPSLKSRVTLSVDTSKNHFSLKLSYVTAADTAVYYCARNLPDIAVVTAVQDATPVWFDPWGPGTLVSVSS VL: DIQLTQSPSSLSASVGDRVTITCRASQGIITYLNWYQQKPGKAPKLLIYATYSLQNGVPSRFSGSGSGTDFTLTISSLQPEDFATYYCQQSYSSLMFTFGQGTKLDIK has Reciprocal neutralising titre of culture supernatant (reciprocal titre) of 102
